Data origin: ChEMBL document CHEMBL1127091

# TARGET OR SYSTEM: Cyclooxygenase (Rattus norvegicus, UniProt P35355+Q63921)
# Sequence (P35355 whole entry): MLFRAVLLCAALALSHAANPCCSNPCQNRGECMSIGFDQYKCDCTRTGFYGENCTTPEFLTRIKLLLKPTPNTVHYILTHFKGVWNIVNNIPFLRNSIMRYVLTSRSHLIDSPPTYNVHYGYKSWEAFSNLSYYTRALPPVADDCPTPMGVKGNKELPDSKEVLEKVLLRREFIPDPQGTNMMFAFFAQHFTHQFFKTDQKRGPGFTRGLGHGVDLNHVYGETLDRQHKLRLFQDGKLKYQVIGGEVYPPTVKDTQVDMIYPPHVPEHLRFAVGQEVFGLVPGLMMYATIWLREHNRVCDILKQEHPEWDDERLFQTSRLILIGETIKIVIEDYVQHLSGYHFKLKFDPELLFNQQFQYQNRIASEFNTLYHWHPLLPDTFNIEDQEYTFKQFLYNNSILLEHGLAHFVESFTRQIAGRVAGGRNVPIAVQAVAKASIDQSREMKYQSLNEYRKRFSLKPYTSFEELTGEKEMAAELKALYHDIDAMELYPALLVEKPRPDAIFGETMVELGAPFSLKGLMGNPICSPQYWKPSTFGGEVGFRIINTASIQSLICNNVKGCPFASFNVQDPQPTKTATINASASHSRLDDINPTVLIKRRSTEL
# Sequence (Q63921 whole entry): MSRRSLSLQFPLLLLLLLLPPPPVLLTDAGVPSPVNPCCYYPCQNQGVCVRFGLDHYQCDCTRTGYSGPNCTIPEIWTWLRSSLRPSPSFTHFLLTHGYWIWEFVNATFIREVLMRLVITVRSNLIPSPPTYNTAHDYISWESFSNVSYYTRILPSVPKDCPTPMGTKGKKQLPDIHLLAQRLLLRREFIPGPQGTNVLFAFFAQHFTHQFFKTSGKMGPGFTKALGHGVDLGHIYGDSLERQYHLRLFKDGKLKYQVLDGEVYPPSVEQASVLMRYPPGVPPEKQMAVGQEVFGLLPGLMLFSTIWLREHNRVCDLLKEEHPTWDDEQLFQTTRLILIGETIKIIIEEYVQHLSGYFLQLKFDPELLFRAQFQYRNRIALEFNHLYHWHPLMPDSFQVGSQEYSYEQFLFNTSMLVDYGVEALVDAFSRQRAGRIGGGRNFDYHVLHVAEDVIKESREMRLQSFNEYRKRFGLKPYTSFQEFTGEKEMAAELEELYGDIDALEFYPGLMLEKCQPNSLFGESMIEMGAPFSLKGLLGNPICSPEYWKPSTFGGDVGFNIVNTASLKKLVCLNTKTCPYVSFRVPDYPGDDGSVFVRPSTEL
METRIC: IC50

Please review the entries below; each comes with its answer.
[[record]]
smiles_structure = "CC(C)(C)c1cc(/C=C/c2n[nH]c(O)n2)cc(C(C)(C)C)c1O"
metric = "IC50"
value_measured = "> 32 µM"

[[record]]
smiles_structure = "CC(C)(C)c1cc(-c2n[nH]c(N)n2)cc(C(C)(C)C)c1O"
metric = "IC50"
value_measured = "> 30 µM"


# input Specify IC50 for CC(C)(C)c1cc(-c2nnc(S)n2N)cc(C(C)(C)C)c1O and stop.
# output > 32 µM
